target: Pellino 1 FHA (Homo sapiens, UniProt Q96FA3); construct: PELI1 and 2 FHA domains (residues 13–273 and 15–275, respectively); GST (N, cleaved yes); made in house; host or cells: E. coli BL21 (DE3); assay: Isothermal titration calorimetry of phosphopeptides with PELI1 FHA fragment; assay type: binding; details: ITC change in enthalpy, PELI1 FHA, 25 mM HEPES pH 7.0, 200 mM NaCl, 1 mM TCEP
Square brackets hold non-standard residues; d marks the D form. Peptide text beside a SMILES is read from it. pT = C[C@@H](OP(=O)(O)O)[C@H](N)C(=O)O
Task for the reader: assign each of the following compounds its reported DH.
One number for each entry, in kcal/mol.

Sample answers from the record:
compound	quantitativeResult
CC(=O)N[C@@H](C)C(=O)N[C@@H](Cc1ccc(O)cc1)C(=O)N[C@@H](CCC(=O)O)C(=O)N[C@@H](CC(=O)O)C(=O)N[C@@H](CO)C(=O)N[C@@H](CCC(=O)O)C(=O)N[C@H](C(=O)N[C@@H](CCC(N)=O)C(=O)N1CCC[C@H]1C(=O)N[C@@H](Cc1ccccc1)C(=O)N[C@@H](CC(=O)O)C(N)=O)[C@@H](C)OP(=O)(O)O [MDC1-pT765] (Ac-AYEDSE[pT]QPFD-NH2)	-22
CC(=O)N[C@@H](C)C(=O)N[C@@H](Cc1ccc(O)cc1)C(=O)N[C@@H](CCC(=O)O)C(=O)N[C@@H](CC(=O)O)C(=O)N[C@@H](CCC(=O)O)C(=O)N1CCC[C@H]1C(=O)N[C@H](C(=O)N[C@@H](CCC(N)=O)C(=O)N[C@@H](C)C(=O)N[C@@H](Cc1ccccc1)C(=O)N[C@@H](C)C(N)=O)[C@@H](C)OP(=O)(O)O [MDC1-pT719] (Ac-AYEDEP[pT]QAFA-NH2)	-21.8
CC(=O)N[C@@H](C)C(=O)N[C@@H](Cc1ccc(O)cc1)C(=O)N[C@@H](CC(=O)O)C(=O)N[C@@H](CC(C)C)C(=O)N[C@@H](CCC(N)=O)C(=O)N[C@@H](C)C(=O)N[C@H](C(=O)N[C@@H](CCC(N)=O)C(=O)N[C@@H](CS)C(=O)N[C@@H](Cc1ccccc1)C(=O)N[C@@H](C)C(N)=O)[C@@H](C)OP(=O)(O)O [MDC1-pT699] (Ac-AYDLQA[pT]QCFA-NH2)	-18.5

Lab note: next compound to report on.
CC(=O)N[C@@H](C)C(=O)N[C@@H](Cc1ccc(O)cc1)C(=O)N[C@@H](CCC(=O)O)C(=O)N[C@H](C(=O)N[C@@H](CC(C)C)C(=O)N[C@@H](C)C(=O)N[C@H](C(=O)N[C@@H](CCC(N)=O)C(=O)N1CCC[C@H]1C(=O)N[C@@H](Cc1ccccc1)C(=O)N[C@@H](CS)C(N)=O)[C@@H](C)OP(=O)(O)O)C(C)C [MDC1-pT752] (Ac-AYEVLA[pT]QPFC-NH2) yielded DH of -18.5

---

Target: Pellino 1 FHA (Homo sapiens, UniProt Q96FA3)
Construct: PELI1 and 2 FHA domains (residues 13–273 and 15–275, respectively); GST (N, cleaved yes); made in house; host or cells: E. coli BL21 (DE3)
Sequence (Q96FA3 13-273): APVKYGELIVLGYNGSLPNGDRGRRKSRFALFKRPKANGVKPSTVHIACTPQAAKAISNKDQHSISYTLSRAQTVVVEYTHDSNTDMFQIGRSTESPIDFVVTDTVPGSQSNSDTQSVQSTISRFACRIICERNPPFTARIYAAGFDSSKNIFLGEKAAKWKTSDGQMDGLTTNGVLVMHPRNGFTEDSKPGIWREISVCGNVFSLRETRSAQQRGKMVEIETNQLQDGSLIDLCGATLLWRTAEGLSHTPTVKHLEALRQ
Assay: Isothermal titration calorimetry of phosphopeptides with PELI1 FHA fragment
Format: binding
Settings: ITC temperature x change in entropy, PELI1 FHA, 25 mM HEPES pH 7.0, 200 mM NaCl, 1 mM TCEP
Square brackets hold non-standard residues; d marks the D form. Peptide text beside a SMILES is read from it. pT = C[C@@H](OP(=O)(O)O)[C@H](N)C(=O)O
Task for the reader: assign each of the following compounds its reported TDS.
Answers are plain numbers, in kJ/mol.

compound	studySystem	TDS [kJ/mol]
CC(=O)N[C@@H](C)C(=O)N[C@@H](Cc1ccc(O)cc1)C(=O)N[C@@H](CCC(=O)O)C(=O)N[C@@H](CC(=O)O)C(=O)N[C@@H](CCC(=O)O)C(=O)N1CCC[C@H]1C(=O)N[C@H](C(=O)N[C@@H](CCC(N)=O)C(=O)N[C@@H](C)C(=O)N[C@@H](Cc1ccccc1)C(=O)N[C@@H](C)C(N)=O)[C@@H](C)OP(=O)(O)O [MDC1-pT719] (Ac-AYEDEP[pT]QAFA-NH2)	Pellino 1 FHA (Homo sapiens, UniProt Q96FA3)	-57.3

Please look at the items below and tell me TDS for each one, in order.
1. CC(=O)N[C@@H](C)C(=O)N[C@@H](Cc1ccc(O)cc1)C(=O)N[C@@H](CCC(=O)O)C(=O)N[C@@H](CC(=O)O)C(=O)N[C@@H](CO)C(=O)N[C@@H](CCC(=O)O)C(=O)N[C@H](C(=O)N[C@@H](CCC(N)=O)C(=O)N1CCC[C@H]1C(=O)N[C@@H](Cc1ccccc1)C(=O)N[C@@H](CC(=O)O)C(N)=O)[C@@H](C)OP(=O)(O)O [MDC1-pT765] (Ac-AYEDSE[pT]QPFD-NH2)
2. CC(=O)N[C@@H](C)C(=O)N[C@@H](Cc1ccc(O)cc1)C(=O)N[C@@H](CC(=O)O)C(=O)N[C@@H](CC(C)C)C(=O)N[C@@H](CCC(N)=O)C(=O)N[C@@H](C)C(=O)N[C@H](C(=O)N[C@@H](CCC(N)=O)C(=O)N[C@@H](CS)C(=O)N[C@@H](Cc1ccccc1)C(=O)N[C@@H](C)C(N)=O)[C@@H](C)OP(=O)(O)O [MDC1-pT699] (Ac-AYDLQA[pT]QCFA-NH2)
3. CC(=O)N[C@@H](C)C(=O)N[C@@H](Cc1ccc(O)cc1)C(=O)N[C@@H](CCC(=O)O)C(=O)N[C@H](C(=O)N[C@@H](CC(C)C)C(=O)N[C@@H](C)C(=O)N[C@H](C(=O)N[C@@H](CCC(N)=O)C(=O)N1CCC[C@H]1C(=O)N[C@@H](Cc1ccccc1)C(=O)N[C@@H](CS)C(N)=O)[C@@H](C)OP(=O)(O)O)C(C)C [MDC1-pT752] (Ac-AYEVLA[pT]QPFC-NH2)

Outgoing:
-54.1
-44.9
-43.3
